molecular target: UniProt:P30305; test: Protein phosphatase inhibition assay, FDP substrate, FMP fluorescence; conditions: genetically recombinant enzyme, fluorescence of FMP
Sequence (P30305 whole entry): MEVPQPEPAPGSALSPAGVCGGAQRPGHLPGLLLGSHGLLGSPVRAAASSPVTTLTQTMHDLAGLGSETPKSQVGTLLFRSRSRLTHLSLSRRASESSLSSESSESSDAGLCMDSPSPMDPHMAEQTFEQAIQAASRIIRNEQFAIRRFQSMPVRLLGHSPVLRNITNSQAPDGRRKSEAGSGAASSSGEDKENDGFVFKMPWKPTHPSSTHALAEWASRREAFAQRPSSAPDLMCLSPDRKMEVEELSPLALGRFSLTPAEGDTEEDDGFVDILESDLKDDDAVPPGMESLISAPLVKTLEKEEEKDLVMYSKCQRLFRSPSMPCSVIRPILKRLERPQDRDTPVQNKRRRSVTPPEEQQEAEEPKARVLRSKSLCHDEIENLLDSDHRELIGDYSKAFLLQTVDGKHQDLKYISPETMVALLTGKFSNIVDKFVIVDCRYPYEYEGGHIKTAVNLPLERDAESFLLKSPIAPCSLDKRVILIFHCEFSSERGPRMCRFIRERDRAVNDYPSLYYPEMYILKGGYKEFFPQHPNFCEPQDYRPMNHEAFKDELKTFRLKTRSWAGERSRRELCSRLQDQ
pIC50: −log10 of the molar value.
OBSERVATION TYPE: pIC50

I = O=C1NC(=S)S/C1=C\c1cc(Br)ccc1OCCN1c2ccccc2Cc2ccccc21 [Compound 142]
II = O=C1NC(=S)S/C1=C\c1cc(Br)ccc1OCCn1c2ccccc2c2ccccc21 [Compound 141]
Of I and II , which shows the smaller pIC50 value? Write down the label of the entry you select.
I
(I: 5.36, II: 5.57)

###

target: PP1; assay: Protein phosphatase inhibition assay, FDP substrate, FMP fluorescence; settings: genetically recombinant enzyme, fluorescence of FMP
pIC50: −log10 of the molar value.
OBSERVATION TYPE: pIC50

COMPOUND STRING	ASSAY VALUE
O=C1NC(=S)S/C1=C\c1cc2ccccc2cc1OCc1ccccc1	< 4.70

Proceed to the following item.
Form field pIC50, entry `O=C1NC(=S)S/C1=C\c1cc(Br)ccc1OCCc1ccccc1` : < 4.70

###

molecular target: LAR (Homo sapiens); experiment: Protein phosphatase inhibition assay, FDP substrate, FMP fluorescence; type: biochemical; settings: genetically recombinant enzyme, fluorescence of FMP
Sequence (P10586 30-1907): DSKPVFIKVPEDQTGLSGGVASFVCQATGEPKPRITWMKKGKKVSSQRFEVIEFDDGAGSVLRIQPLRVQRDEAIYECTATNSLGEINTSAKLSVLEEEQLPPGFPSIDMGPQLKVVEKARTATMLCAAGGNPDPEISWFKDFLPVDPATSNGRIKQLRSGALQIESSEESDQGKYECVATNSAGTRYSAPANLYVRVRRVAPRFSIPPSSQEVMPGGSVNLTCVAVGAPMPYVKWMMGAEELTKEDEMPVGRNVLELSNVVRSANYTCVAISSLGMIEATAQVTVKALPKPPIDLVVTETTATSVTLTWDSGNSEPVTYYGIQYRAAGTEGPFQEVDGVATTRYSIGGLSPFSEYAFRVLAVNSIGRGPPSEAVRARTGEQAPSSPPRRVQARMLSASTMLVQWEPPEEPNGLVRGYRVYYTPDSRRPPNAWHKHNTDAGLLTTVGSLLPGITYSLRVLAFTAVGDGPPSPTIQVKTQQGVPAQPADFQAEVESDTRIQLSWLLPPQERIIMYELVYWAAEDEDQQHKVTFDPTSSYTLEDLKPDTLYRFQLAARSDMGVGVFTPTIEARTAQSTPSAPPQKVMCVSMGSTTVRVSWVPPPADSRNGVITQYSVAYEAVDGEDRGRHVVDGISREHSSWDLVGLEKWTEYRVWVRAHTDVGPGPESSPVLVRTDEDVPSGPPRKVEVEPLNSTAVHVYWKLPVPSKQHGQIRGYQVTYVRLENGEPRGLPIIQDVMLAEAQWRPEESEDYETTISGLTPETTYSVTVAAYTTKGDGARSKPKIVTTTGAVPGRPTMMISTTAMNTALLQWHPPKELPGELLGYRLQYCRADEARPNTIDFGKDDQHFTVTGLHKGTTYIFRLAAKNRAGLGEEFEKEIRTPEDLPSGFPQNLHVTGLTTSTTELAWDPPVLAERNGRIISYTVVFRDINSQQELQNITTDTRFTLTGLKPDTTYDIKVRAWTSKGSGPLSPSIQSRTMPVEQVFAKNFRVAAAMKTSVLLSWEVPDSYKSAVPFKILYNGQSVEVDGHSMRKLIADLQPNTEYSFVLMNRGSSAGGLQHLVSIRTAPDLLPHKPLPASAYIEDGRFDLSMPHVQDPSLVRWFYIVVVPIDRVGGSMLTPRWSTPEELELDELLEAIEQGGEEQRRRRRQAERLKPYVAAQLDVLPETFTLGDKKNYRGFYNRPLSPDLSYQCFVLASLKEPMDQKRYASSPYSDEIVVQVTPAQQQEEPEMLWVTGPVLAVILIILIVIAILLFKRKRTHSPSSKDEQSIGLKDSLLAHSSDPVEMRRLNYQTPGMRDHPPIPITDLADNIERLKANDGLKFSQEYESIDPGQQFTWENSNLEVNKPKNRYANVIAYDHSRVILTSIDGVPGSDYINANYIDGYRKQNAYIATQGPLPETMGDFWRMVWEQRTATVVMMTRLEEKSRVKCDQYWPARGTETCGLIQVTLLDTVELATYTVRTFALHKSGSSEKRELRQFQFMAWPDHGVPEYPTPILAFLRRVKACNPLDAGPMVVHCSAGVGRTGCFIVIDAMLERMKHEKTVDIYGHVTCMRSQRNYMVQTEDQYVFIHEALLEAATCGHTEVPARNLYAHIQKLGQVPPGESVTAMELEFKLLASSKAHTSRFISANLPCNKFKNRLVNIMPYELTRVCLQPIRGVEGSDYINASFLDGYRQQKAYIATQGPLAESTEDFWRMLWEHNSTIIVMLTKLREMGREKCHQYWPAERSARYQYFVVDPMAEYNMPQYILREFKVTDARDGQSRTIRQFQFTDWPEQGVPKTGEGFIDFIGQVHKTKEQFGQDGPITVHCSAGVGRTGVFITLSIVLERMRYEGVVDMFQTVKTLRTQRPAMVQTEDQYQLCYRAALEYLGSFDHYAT
pIC50: −log10 of the molar value.
Entries annotated with measured pIC50

COMPOUND STRING	OBSERVATION TYPE	ASSAY VALUE
CN(CCOc1ccc(Br)cc1/C=C1\SC(=S)NC1=O)C(=O)OC(C)(C)C	pIC50	< 4.70

Proceed to the following item.
Form field pIC50, entry `CCN(CC)c1ccc(/C=C2\SC(=S)NC2=O)c(OCc2ccccc2)c1` : < 4.70

###

molecular target: Cdc25A (Homo sapiens); assay: Protein phosphatase inhibition assay, FDP substrate, FMP fluorescence; assay type: biochemical; details: genetically recombinant enzyme, fluorescence of FMP
Sequence (P30304 whole entry): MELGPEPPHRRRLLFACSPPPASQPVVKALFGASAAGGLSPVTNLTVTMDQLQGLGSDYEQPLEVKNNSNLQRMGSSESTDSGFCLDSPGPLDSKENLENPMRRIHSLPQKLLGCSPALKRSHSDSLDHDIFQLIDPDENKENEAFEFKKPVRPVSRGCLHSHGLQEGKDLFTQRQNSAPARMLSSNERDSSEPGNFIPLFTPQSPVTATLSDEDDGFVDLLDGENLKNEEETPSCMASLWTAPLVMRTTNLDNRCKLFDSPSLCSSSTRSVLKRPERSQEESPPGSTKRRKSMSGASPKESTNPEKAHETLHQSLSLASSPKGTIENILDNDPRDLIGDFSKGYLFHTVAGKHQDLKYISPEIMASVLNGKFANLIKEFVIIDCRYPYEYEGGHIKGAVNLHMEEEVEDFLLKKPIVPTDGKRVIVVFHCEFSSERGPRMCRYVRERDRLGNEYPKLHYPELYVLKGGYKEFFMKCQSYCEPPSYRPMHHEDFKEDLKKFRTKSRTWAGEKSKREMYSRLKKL
OBSERVATION TYPE: IC50

Form field IC50, entry `O=C1NC(=S)S/C1=C\c1cc(Br)ccc1OCCn1c2ccccc2c2ccccc21` : > 20 µM

###

target: pp2A; experiment: Protein phosphatase inhibition assay, FDP substrate, FMP fluorescence; type: biochemical; conditions: genetically recombinant enzyme, fluorescence of FMP
pIC50: −log10 of the molar value.
OBSERVATION TYPE: pIC50

Form field pIC50, entry `O=C1NC(=S)S/C1=C\c1cc(Br)ccc1OCCc1ccccc1` : < 4.70

###

biological target: UniProtKB P51452; experiment: Protein phosphatase inhibition assay, FDP substrate, FMP fluorescence; conditions: genetically recombinant enzyme, fluorescence of FMP
Sequence (P51452 whole entry): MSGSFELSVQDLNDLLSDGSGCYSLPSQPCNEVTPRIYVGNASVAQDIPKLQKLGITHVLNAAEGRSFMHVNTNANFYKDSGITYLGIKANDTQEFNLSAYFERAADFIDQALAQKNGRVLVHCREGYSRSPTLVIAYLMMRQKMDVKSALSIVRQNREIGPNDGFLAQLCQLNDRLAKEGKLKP
OBSERVATION TYPE: IC50

COMPOUND STRING	IC50
CCN(CC)c1ccc(/C=C2\SC(=S)NC2=O)c(OCc2ccccc2)c1	> 20 µM

Proceed to the following item.
Form field IC50, entry `O=C1NC(=S)S/C1=C\c1cc(Br)ccc1OCc1cccc(C(F)(F)F)c1` : > 20 µM

###

target: Prl-3 (Homo sapiens, UniProt O75365); test: Protein phosphatase inhibition assay, FDP substrate, FMP fluorescence; details: genetically recombinant enzyme, fluorescence of FMP
Sequence (O75365 whole entry): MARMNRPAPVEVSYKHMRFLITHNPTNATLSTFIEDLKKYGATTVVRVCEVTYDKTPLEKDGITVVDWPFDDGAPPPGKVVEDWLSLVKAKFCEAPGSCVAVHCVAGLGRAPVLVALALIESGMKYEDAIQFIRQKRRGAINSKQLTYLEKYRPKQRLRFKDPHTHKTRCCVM
pIC50: −log10 of the molar value.
OBSERVATION TYPE: pIC50

MOLECULE	OBSERVATION TYPE	ASSAY VALUE
CCN(CC)c1ccc(/C=C2\SC(=S)NC2=O)c(OCc2ccccc2)c1 [Compound 32]	pIC50	5.87
CN(CCOc1ccc(Br)cc1/C=C1\SC(=S)NC1=O)C(=O)OC(C)(C)C [Compound 157]	pIC50	5.21

a = O=C1NC(=S)S/C1=C\c1cc(Br)ccc1OCCN1c2ccccc2Cc2ccccc21 [Compound 142]
b = O=C1NC(=S)S/C1=C\c1cc(Br)ccc1OCCn1c2ccccc2c2ccccc21 [Compound 141]
Returns: the argument ( a or b ) having the larger pIC50. Write down the label of the entry you select.
b
(b: 5.80, a: 5.44)

###

Target: PTP1B (Homo sapiens)
Sequence (P18031 1-435): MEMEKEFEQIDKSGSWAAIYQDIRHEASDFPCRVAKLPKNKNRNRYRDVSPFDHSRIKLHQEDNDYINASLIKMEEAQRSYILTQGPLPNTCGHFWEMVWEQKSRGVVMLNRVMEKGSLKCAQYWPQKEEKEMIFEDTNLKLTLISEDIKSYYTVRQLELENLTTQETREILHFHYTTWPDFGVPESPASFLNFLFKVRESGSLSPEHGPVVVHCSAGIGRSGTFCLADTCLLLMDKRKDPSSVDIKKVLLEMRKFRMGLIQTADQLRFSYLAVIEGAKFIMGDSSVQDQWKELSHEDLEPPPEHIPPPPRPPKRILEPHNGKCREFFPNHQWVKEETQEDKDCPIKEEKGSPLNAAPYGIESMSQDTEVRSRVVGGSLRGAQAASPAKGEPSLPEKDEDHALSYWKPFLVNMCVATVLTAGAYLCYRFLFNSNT
Test: Protein phosphatase inhibition assay, FDP substrate, FMP fluorescence
Type: biochemical
Conditions: genetically recombinant enzyme, FDP substrate, fluorescence of FMP; read-out: IC50 PTP1B
pIC50: −log10 of the molar value.
OBSERVATION TYPE: pIC50

COMPOUND STRING	pIC50
O=C1NC(=S)S/C1=C\c1cc(Br)ccc1OCCc1ccccc1	5.00

1 = O=C1NC(=S)S/C1=C\c1cc(Br)ccc1OCCN1c2ccccc2Cc2ccccc21
2 = O=C1NC(=S)S/C1=C\c1cc(Br)ccc1OCc1ccc(-c2ccccc2)cc1
3 = O=C1NC(=S)S/C1=C\c1cc(Br)ccc1OCCn1c2ccccc2c2ccccc21
4 = O=C1NC(=S)S/C1=C\c1cc(Br)ccc1OCc1cccc(C(F)(F)F)c1
# rank_down: sort by pIC50, max first Please list the labels in the order you were asked to rank them.
2, 4, 1, 3

###

biological target: PTP1B (Homo sapiens); test: Protein phosphatase inhibition assay, FDP substrate, FMP fluorescence; assay type: biochemical
OBSERVATION TYPE: IC50

Form field IC50, entry O=C1NC(=S)S/C1=C\c1cc(Br)ccc1OCc1ccccc1 [Compound 1] : > 20 µM

###

molecular target: PTP1B (Homo sapiens, UniProt P18031); assay: Protein phosphatase inhibition assay, FDP substrate, FMP fluorescence; format: biochemical; details: genetically recombinant enzyme, FDP substrate, fluorescence of FMP; read-out: IC50 PTP1B
pIC50: −log10 of the molar value.
OBSERVATION TYPE: pIC50

COMPOUND	OBSERVATION TYPE	ASSAY VALUE
O=C1NC(=S)S/C1=C\c1cc2ccccc2cc1OCc1ccccc1 [Compound 2]	pIC50	< 4.70

Form field pIC50, entry CN(CCOc1ccc(Br)cc1/C=C1\SC(=S)NC1=O)C(=O)OC(C)(C)C [Compound 157] : < 4.70

Form field pIC50, entry CCN(CC)c1ccc(/C=C2\SC(=S)NC2=O)c(OCc2ccccc2)c1 [Compound 32] : < 4.70
